Data origin: paper PMC9968125

In this section we review reported Cytostatic Activity values for a set of compounds.
- System: RAW 264.7 cells
- assay-summary: MTT assay, cytostatic activity on RAW 264.7 cells
- Assay type: cell-based, mouse
- experimental-context: RAW 264.7, at 72 h, n.a. = no cytostatic activity observed at the concentrations tested

Some compounds with known Cytostatic Activity results, for comparison:
CC1=C(C)[C@](C)(c2ccc(CBr)cc2)CC1 (single isomer, unassigned) | > 25 µM
C=CC(C)(O)CC[C@@H]1C(=C)CC[C@H](Br)C1(C)C (stereo partly shown) | > 25 µM
CC(=O)CC[C@](C)(C(C)=O)c1ccc(CO)cc1 (single isomer, unassigned) [Compound 14, 2,3-dioxo-15-hydroxy-seco-laurene] | > 25 µM
CC1=CC[C@@H](Br)C(C)(C)[C@]12CC[C@](C)(Cl)[C@@H](Br)C2 | > 25 µM
CC1(C)[C@H](O)CC[C@@]1(C)c1ccc(CO)cc1 | > 50 µM
CC1=C(C)[C@](C)(c2ccc(C)cc2)CC1=O (stereo in doubt) | > 25 µM

Continue with the compound presented below.
Query CC1=C(C)[C@](C)(c2ccc(C)cc2)CC1 yields Cytostatic Activity of > 50 µM
